The reported numbers originate from patent US8835644B2.

Measured MIC by item
Tested on: E. coli biofilm
assay details: E. coli biofilm assay (activity tables)
Assay type: cell-based, Escherichia coli
details: biofilm; Furan analogues table; read-out: MIC E. coli Biofilm
Answer with a number only, understood to be in µM.

compound: O=C(Nc1ncc([N+](=O)[O-])s1)c1ccc(-c2cccc(C(F)(F)F)c2)o1 [VPC161197]
unit abbrev: µM
MIC: 90.8

compound: O=C(Nc1ncc([N+](=O)[O-])s1)c1ccc(-c2ccc([N+](=O)[O-])cc2)o1 [VPC161189]
unit abbrev: µM
MIC: 88.8

As a next step, examine the compound that follows.
Lab entry: E. coli biofilm assay, compound O=C(Nc1ncc([N+](=O)[O-])s1)c1ccc(-c2cccc([N+](=O)[O-])c2)o1 [VPC161190] , MIC = 88.8

====

We begin with a simple list: items and their reported MIC.
Test system: MRSA
assay details: MIC testing by broth dilution, MRSA
Assay type: cell-based, Staphylococcus aureus
details: Thiophene analogues table; read-out: MIC MRSA

Reference set (5 entries):
compound: O=C(Nc1ncc([N+](=O)[O-])s1)c1cc2ccc(F)cc2s1 [VPC162037]
measured quantity: MIC
readout value: 61.9 µM

compound: O=C(Nc1ncc([N+](=O)[O-])s1)c1ccsc1 [VPC16a1008]
measured quantity: MIC
readout value: 23.5 µM

compound: COc1cc2cc(C(=O)Nc3ncc([N+](=O)[O-])s3)sc2cc1F [VPC161259]
measured quantity: MIC
readout value: 11.3 µM

compound: O=C(Nc1ncc([N+](=O)[O-])s1)c1sccc1Cl [VPC16a1009]
measured quantity: MIC
readout value: 20.7 µM

compound: O=C(Nc1ncc([N+](=O)[O-])s1)c1ccc(-c2ccco2)s1 [VPC16b1148]
measured quantity: MIC
readout value: 24.9 µM

Then there is this compound:
Field MIC (system: MRSA) for entry O=C(Nc1ncc([N+](=O)[O-])s1)c1ccc(-c2cccs2)s1 [VPC16b2021] = 94.8 µM

====

This section presents compounds with their documented MIC values.
System: C. jejuni
assay details: MIC testing by broth dilution, C. jejuni
Type: cell-based, Campylobacter jejuni
details: broth dilution, Brain Heart Infusion, 24 h; read-out: MIC (μM) C. jejuni
Lab book: enter the figure in µM, no units written.

Example results:
compound: O=C(Nc1ncc([N+](=O)[O-])s1)c1ccncc1F
target desc: C. jejuni
MIC, µM: 14.9

compound: CC1=C(C(=O)Nc2ncc([N+](=O)[O-])s2)Cc2ccccc21
target desc: C. jejuni
MIC, µM: 10.7

compound: Cl.NCCCOc1ccccc1C(=O)Nc1ncc([N+](=O)[O-])s1 [VPC162102HCl]
target desc: C. jejuni
MIC, µM: 8.4

Proceeding to the next compound to report its MIC.
Let me check: `O=C(Nc1ncc([N+](=O)[O-])s1)c1c(F)cccc1F` , system C. jejuni, measured MIC is 14.0

====

# PFOR inhibition relative to nitazoxanide (=100) annotations
Tested on: PFOR (pyruvate ferredoxin oxidoreductase)
assay details: Direct PFOR enzyme assay
Type: biochemical
details: * biphasic initial inhibition followed by uninhibited rate, ** caused some precipitant in extract

compound smiles: O=C(Nc1sc([N+](=O)[O-])cc1[N+](=O)[O-])c1ccc(Br)s1
target desc: PFOR (pyruvate ferredoxin oxidoreductase)
readout value: 98** %

compound smiles: O=C(Nc1sc([N+](=O)[O-])cc1[N+](=O)[O-])c1ccoc1
target desc: PFOR (pyruvate ferredoxin oxidoreductase)
readout value: 126* %

compound smiles: O=C(Nc1sc([N+](=O)[O-])cc1[N+](=O)[O-])c1ccc(Br)o1
target desc: PFOR (pyruvate ferredoxin oxidoreductase)
readout value: 94** %

compound smiles: O=C(Nc1sc([N+](=O)[O-])cc1[N+](=O)[O-])c1ccccc1
target desc: PFOR (pyruvate ferredoxin oxidoreductase)
readout value: 100** %

Now consider the entry below.
Just so you know, measured PFOR inhibition relative to nitazoxanide (=100) for `O=C(Nc1sc([N+](=O)[O-])cc1[N+](=O)[O-])c1cccc(C(F)(F)F)c1` came out at 87** %
